Source listed as a melting point compilation (Tetko et al.; mined from patent text by program, amines drawn as free bases though some values may be those of a salt).

testReadout: melting point

Completed entries (count: 4):
[
  {
    "compound": "CCCOc1ccc(S(=O)(=O)Nc2ccc3[nH]ncc3c2)cc1-c1nc2cc(N)c(N)cc2c(=O)[nH]1",
    "testReadout": "melting point",
    "experimentalValue": "261 to 263 °C"
  },
  {
    "compound": "O=C(NCCO)c1cc2c(Oc3ccc(Cl)cc3)cnc(Cl)c2s1",
    "testReadout": "melting point",
    "experimentalValue": "129 to 132 °C"
  },
  {
    "compound": "O=S(=O)(NCc1ccccc1)c1ccc(Br)cc1",
    "testReadout": "melting point",
    "experimentalValue": "116 to 117 °C"
  },
  {
    "compound": "Fc1ccc2c(c1)[C@H]1N[C@@H](CNC(c3ccccc3)(c3ccccc3)c3ccccc3)C[C@@H]1c1ccccc1C2",
    "testReadout": "melting point",
    "experimentalValue": "58 to 60 °C"
  }
]

Report melting point for Nc1nc(Cl)c(N)c(NCCCCO)n1 110 to 111 °C

Report melting point for COc1cc2ncc(C#N)c(Nc3ccccc3C)c2cc1OC 137 to 141 °C

Report melting point for O=C(NC1(O)CC1)c1ccccc1 153 to 155 °C

Report melting point for CSc1[nH]cc(Cc2ccccc2)c1[N+](=O)[O-] 190 to 192 °C

Report melting point for CSc1c[nH]nc1C1CN2CCC1CC2 (stereo not given) 145 to 147 °C

Report melting point for CC(C)(C)c1ccc(-c2nn(-c3ccc(F)cc3F)c3c2C2CCC3C2)cc1 (stereo not given) 130 to 132 °C

Report melting point for CCN(CC)C(=O)c1nc(-c2c(Cl)cc(C(F)(F)F)cc2Cl)[nH]c1C#N 195 to 197 °C

Report melting point for CN1C(C)(C)CC(NC(=O)c2ccc(-c3nc4ccc(Cl)cc4[nH]3)cc2)CC1(C)C > 250 °C

Report melting point for CN1c2ccc(Cl)cc2C(c2ccccc2)=NCC1CN1CCCCC1 (stereo not given) 143 to 145 °C

Report melting point for CCN(CC)C(=O)Nc1ccc(S(=O)(=O)n2c(=O)n(-c3ccccc3Cl)c3cc(Cl)ccc32)cc1 222 °C

Report melting point for CNC(=O)c1cnn(C)c1C(=O)Nc1ccn2nc(-c3ccccc3)nc2c1 > 250 °C

Report melting point for CC(C(N)=O)N1CCN(c2ccccn2)CC1 (stereo not given) 130 to 132 °C

Report melting point for CNC(=O)c1ccc(C=CC(=O)O)cc1 273 °C

Report melting point for OCCc1c2ccccc2cc2ccccc12 85 to 87 °C

Report melting point for CC(COc1ccc(O)c(C(N)=O)c1)N(Cc1ccccc1)CC(O)COc1ccc(OCC(N)=O)cc1 (stereo not given) 145 to 149 °C
